Biological target: STK39 (human)
Assay: radiometric filter-binding kinase assay, Kinase HotSpot
Settings: compound 0.5 µM; ATP 10 µM
property.name: residual activity (%)
Respond numerically; units are % and should not be typed.

Reported residual activity of Nc1ncnc2c1cnn2-c1ccccc1 : 107

Reported residual activity of O=S(=O)(NCCNC/C=C/c1ccc(Br)cc1)c1cccc2cnccc12 : 103

====

Biological target: DDR2 (human)
Experiment: radiometric filter-binding kinase assay, Kinase HotSpot
Conditions: compound 0.5 µM; ATP 10 µM
property.name: residual activity (%)
Respond numerically; units are % and should not be typed.

{"columns": ["smiles.input", "residual activity / %"],
 "data": [
  ["COc1cc2ncnc(Nc3ccc(O)c(Br)c3)c2cc1OC", 119],
  ["CCc1nc(-c2ccc(OC)cc2)[nH]c1-c1ccncc1", 96.1]
]}

Next item in the queue.
Tested on DDR2 (human): N#CCCc1ccc2c(c1)-c1[nH]c3ccc([N+](=O)[O-])cc3c1CC(=O)N2 . Observed residual activity: 105

====

Target: JAK2 JH1 JH2 (human)
Experiment: radiometric filter-binding kinase assay, Kinase HotSpot
Conditions: compound 0.5 µM; ATP 10 µM
# reported residual activity; entries follow
Respond numerically; units are % and should not be typed.

Study these solved cases before continuing.
{"columns": ["smiles.input", "residual activity (%)"],
 "data": [
  ["COc1cc2c(N3CCN(C(=O)Nc4ccc(OC(C)C)cc4)CC3)ncnc2cc1OCCCN1CCCCC1", 101],
  ["COc1cc2c(cc1OC)-c1[nH]nc(Nc3cccc(F)c3)c1C2", 107],
  ["CCOc1cc2ncnc(Nc3cccc(Br)c3)c2cc1OCC", 99]
]}

Tested on JAK2 JH1 JH2 (human): CCCCc1c(-c2ccc(O)cc2)[nH]c2nccnc12 . Observed residual activity: 77.8

Tested on JAK2 JH1 JH2 (human): Nc1ncnc2c1cnn2-c1ccccc1 . Observed residual activity: 91.6

====

Target: FGFR3 (human)
Test: radiometric filter-binding kinase assay, Kinase HotSpot
Conditions: compound 0.5 µM; ATP 10 µM
# reported residual activity; entries follow
Respond numerically; units are % and should not be typed.

Study these solved cases before continuing.
{"columns": ["smiles.input", "property.name", "uom", "value.observed"],
 "data": [
  ["N#Cc1c(NC(=O)c2cccc3ccccc23)sc2c1CCCC2", "residual activity", "%", 101],
  ["N/C(=N\\N=C/c1ccc(-c2cccc([N+](=O)[O-])c2)o1)N[N+](=O)[O-]", "residual activity", "%", 99.6]
]}

Reported residual activity of Nc1ncnc2c1cnn2-c1ccccc1 : 97.9

Reported residual activity of O=c1cc(N2CCOCC2)oc2c(-c3ccccc3)cccc12 : 95.9

Reported residual activity of O=C1NC(=O)c2cc(Nc3ccc(F)cc3)c(Nc3ccc(F)cc3)cc21 : 99.7

Reported residual activity of COc1cccc(-c2cc(=O)c3ccccc3o2)c1N : 91

====

Target: FGR (human) (UniProt P09769)
Sequence (P09769 whole entry, looked up): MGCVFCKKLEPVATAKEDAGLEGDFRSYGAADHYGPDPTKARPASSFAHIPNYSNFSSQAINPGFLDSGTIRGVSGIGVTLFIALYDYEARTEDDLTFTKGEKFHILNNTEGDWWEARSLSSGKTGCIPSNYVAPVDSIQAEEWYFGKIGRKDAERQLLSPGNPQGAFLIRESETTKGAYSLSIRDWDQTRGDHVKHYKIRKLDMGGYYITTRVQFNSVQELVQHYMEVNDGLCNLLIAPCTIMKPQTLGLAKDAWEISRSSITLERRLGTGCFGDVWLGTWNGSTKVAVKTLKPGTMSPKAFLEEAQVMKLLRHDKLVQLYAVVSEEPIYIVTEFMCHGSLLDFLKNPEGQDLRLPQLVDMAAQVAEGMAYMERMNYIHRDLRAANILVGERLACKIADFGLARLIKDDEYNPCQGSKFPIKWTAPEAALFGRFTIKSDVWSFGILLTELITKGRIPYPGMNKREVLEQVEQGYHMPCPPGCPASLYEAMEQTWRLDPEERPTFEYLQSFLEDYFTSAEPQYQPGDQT
Assay: radiometric filter-binding kinase assay, Kinase HotSpot
Conditions: compound 0.5 µM; ATP 10 µM
Class assignment keyed on residual activity, ranges class 1: < 60%; class 2: ≥ 60% and < 90%; class 3: ≥ 90%

Exercise: Input CN[C@@H]1C[C@H]2O[C@@](C)([C@@H]1OC)n1c3ccccc3c3c4c(c5c6ccccc6n2c5c31)C(=O)NC4 ; output its category
Key: class 1

====

System: SGK1 (human), O00141 [S422D]
Sequence (O00141 whole entry S422D, looked up): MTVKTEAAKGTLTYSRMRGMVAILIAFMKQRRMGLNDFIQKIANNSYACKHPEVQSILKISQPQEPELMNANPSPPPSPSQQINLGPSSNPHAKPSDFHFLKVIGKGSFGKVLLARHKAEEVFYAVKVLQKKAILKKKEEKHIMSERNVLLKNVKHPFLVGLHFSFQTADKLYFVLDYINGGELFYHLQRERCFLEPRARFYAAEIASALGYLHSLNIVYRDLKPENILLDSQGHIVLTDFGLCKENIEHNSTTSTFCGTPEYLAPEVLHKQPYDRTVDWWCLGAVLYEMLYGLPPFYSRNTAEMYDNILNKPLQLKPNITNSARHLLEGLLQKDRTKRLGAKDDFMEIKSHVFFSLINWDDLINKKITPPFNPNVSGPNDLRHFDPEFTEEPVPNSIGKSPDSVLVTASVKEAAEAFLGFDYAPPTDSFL
Test: radiometric filter-binding kinase assay, Kinase HotSpot
Settings: compound 0.5 µM; ATP 10 µM
property.name: residual activity
Give me the value, and tack the unit on after it.

Study these solved cases before continuing.
{"columns": ["smiles.input", "value.observed"],
 "data": [
  ["COc1cc2c(N3CCN(C(=O)Nc4ccc(OC(C)C)cc4)CC3)ncnc2cc1OCCCN1CCCCC1", "123%"],
  ["Cc1cc(Nc2nc(-c3ccccc3)nc3ccccc23)n[nH]1", "95.5%"],
  ["N#C/C(=C1/Nc2ccccc2S1)c1ccnc(NCCc2cccnc2)n1", "100%"],
  ["CNc1cc2c(Nc3cccc(Br)c3)ncnc2cn1", "94.4%"],
  ["O=C1NC(=O)C(c2cn(CCCO)c3ncccc23)=C1c1cnccn1", "91.2%"],
  ["O=C1NC(=O)C(c2c[nH]c3ccccc23)=C1c1c[nH]c2ccccc12", "105%"]
]}

Next item in the queue.
Reported residual activity of O=C(Nc1cccc(Nc2nccc(Nc3cccc(C(F)(F)F)c3)n2)c1)C1CC1 : 103%

====

Target: ADRBK2 (human)
Test: radiometric filter-binding kinase assay, Kinase HotSpot
Conditions: compound 0.5 µM; ATP 10 µM
property.name: residual activity (%)
Respond numerically; units are % and should not be typed.

Study these solved cases before continuing.
{"columns": ["smiles.input", "residual activity / %"],
 "data": [
  ["COc1cc2ncnc(Nc3ccc(O)c(Br)c3)c2cc1OC", 103],
  ["c1ccc(-c2cnc(Nc3ccc(OCCN4CCCC4)cc3)s2)cc1", 103],
  ["N/C(=N\\N=C/c1ccc(-c2cccc([N+](=O)[O-])c2)o1)N[N+](=O)[O-]", 102],
  ["CCOc1cc2ncnc(Nc3cccc(Br)c3)c2cc1OCC", 93.8],
  ["N#CCCc1ccc2c(c1)-c1[nH]c3ccc([N+](=O)[O-])cc3c1CC(=O)N2", 97.1]
]}

Tested on ADRBK2 (human): CCc1nc(-c2ccc(OC)cc2)[nH]c1-c1ccncc1 . Observed residual activity: 98.4

Tested on ADRBK2 (human): O=C(c1ccccc1)c1ccc(N2CCOCC2)cc1O . Observed residual activity: 103

Tested on ADRBK2 (human): COc1cccc(-c2cc(=O)c3ccccc3o2)c1N . Observed residual activity: 94.7

Tested on ADRBK2 (human): O=c1[nH]c2ccccc2n1C1CCN(Cc2ccc(-c3nc4cc5[nH]cnc5cc4nc3-c3ccccc3)cc2)CC1 . Observed residual activity: 87.3

Tested on ADRBK2 (human): O=C(O)c1ccc2c3c1cccc3c(=O)n1c3ccccc3nc21 . Observed residual activity: 103

====

Target: CAMK1 (human)
Assay: radiometric filter-binding kinase assay, Kinase HotSpot
Details: compound 0.5 µM; ATP 10 µM
# reported residual activity; entries follow
Respond numerically; units are % and should not be typed.

{"columns": ["smiles.input", "uom", "value.observed"],
 "data": [
  ["O=c1cc(N2CCOCC2)oc2c(-c3ccccc3)cccc12", "%", 96.7],
  ["O=C(O)c1ccc2c3c1cccc3c(=O)n1c3ccccc3nc21", "%", 101],
  ["COc1cc2ncnc(Nc3ccc(O)c(Br)c3)c2cc1OC", "%", 103],
  ["N/C(=N\\N=C/c1ccc(-c2cccc([N+](=O)[O-])c2)o1)N[N+](=O)[O-]", "%", 106],
  ["O=C1NC(=O)c2c1c1c3ccccc3[nH]c1c1[nH]c3cc(Br)ccc3c21", "%", 99]
]}

Next item in the queue.
Reported residual activity of N#CCCc1ccc2c(c1)-c1[nH]c3ccc([N+](=O)[O-])cc3c1CC(=O)N2 : 96

====

Biological target: MARK4 (human)
Assay: radiometric filter-binding kinase assay, Kinase HotSpot
Conditions: compound 0.5 µM; ATP 10 µM
# reported residual activity; entries follow
Respond numerically; units are % and should not be typed.

Study these solved cases before continuing.
{"columns": ["smiles.input", "property.name", "uom", "value.observed"],
 "data": [
  ["COc1cc2c(N3CCN(C(=O)Nc4ccc(OC(C)C)cc4)CC3)ncnc2cc1OCCCN1CCCCC1", "residual activity", "%", 98.7],
  ["O=C1NC(=O)c2c1c1c3ccccc3[nH]c1c1[nH]c3cc(Br)ccc3c21", "residual activity", "%", 38.7],
  ["CCOc1cc2ncnc(Nc3cccc(Br)c3)c2cc1OCC", "residual activity", "%", 99.2],
  ["O=c1[nH]c2ccccc2n1C1CCN(Cc2ccc(-c3nc4cc5[nH]cnc5cc4nc3-c3ccccc3)cc2)CC1", "residual activity", "%", 102],
  ["N/C(=N\\N=C/c1ccc(-c2cccc([N+](=O)[O-])c2)o1)N[N+](=O)[O-]", "residual activity", "%", 87.6]
]}

Tested on MARK4 (human): CCc1nc(-c2ccc(OC)cc2)[nH]c1-c1ccncc1 . Observed residual activity: 96.4

Tested on MARK4 (human): O=C(O)c1ccc2c3c1cccc3c(=O)n1c3ccccc3nc21 . Observed residual activity: 88.4

Tested on MARK4 (human): Cn1cc(/C=C2\C(=O)Nc3ccc(S(N)(=O)=O)cc32)c2ccccc21 . Observed residual activity: 40.6

Tested on MARK4 (human): O=c1c(-c2ccc(F)cc2)c(-c2ccncc2)[nH]n1-c1ccc(Cl)cc1 . Observed residual activity: 80

Tested on MARK4 (human): O=C1NC(=O)c2cc(Nc3ccc(F)cc3)c(Nc3ccc(F)cc3)cc21 . Observed residual activity: 98.2
